Entry source: patent US9421211B2

System: eIF2.GTP.Met-tRNAi ternary complex
assay.overview: ATF-4 assay (firefly/renilla luciferase ratio) in CRL-2351 cell line
Type: cell-based, human
condition.details: Homo sapiens, read-out: ATF-4 Amax: maximal activity, ratio of firefly over renilla luciferase expression
parameter.measured: maximal fold induction
One number for each entry.

The following compounds have reported results that may help.
O=C(Nc1cc(C(F)(F)F)cc(C(F)(F)F)c1)Nc1cc(C(F)(F)F)cc(C(F)(F)F)c1; 11
Cc1ccc(NC(=O)Nc2ccc(Cl)c(Cl)c2)cc1OCCN1CCOCC1; 5.5
Cc1ccc(NC(=O)Nc2ccc(Cl)c(Cl)c2)cc1OCCN(C)C; 7.5
COc1cc(NC(=O)Nc2ccc(Cl)c(C(F)(F)F)c2)ccc1C; 8
Cc1ccc(NC(=O)Nc2cc(C(F)(F)F)cc(C(F)(F)F)c2)cc1OCCN(C)C; 12.5

Hey, can you go through the list below and give me maximal fold induction for every item?
1. O=C(Nc1ccc(Cl)c(C(F)(F)F)c1)Nc1ncccc1O
2. Cc1ccc(NC(=O)Nc2ccc(Cl)c(Cl)c2)cc1OCCN1CCNCC1
3. O=C(Nc1ccc(Cl)c(Cl)c1)Nc1ccc(Cl)c(Cl)c1
4. O=C(Nc1cc(C(F)(F)F)cc(C(F)(F)F)c1)Nc1ncccc1O
5. Cc1ccc(NC(=O)Nc2ccc(Cl)c(C(F)(F)F)c2)cc1OCCN1CCOCC1
6. Cc1ccc(NC(=O)Nc2cc(C(F)(F)F)cc(C(F)(F)F)c2)cc1O

Ans.
1: 6.5; 2: 7.5; 3: 11; 4: 5; 5: 7; 6: 13

Hey, can you go through the list below and give me maximal fold induction for every item?
1. Cc1ccc(NC(=O)Nc2ccc(Cl)c(C(F)(F)F)c2)cc1OCCN(C)C
2. COc1cc(NC(=O)Nc2cc(C(F)(F)F)cc(C(F)(F)F)c2)ccc1C
3. Cc1ccc(NC(=O)Nc2cc(C(F)(F)F)cc(C(F)(F)F)c2)cc1OCCN1CCOCC1
4. O=C(Nc1ccc(Cl)c(C(F)(F)F)c1)Nc1ccc(Cl)c(C(F)(F)F)c1
5. Cc1ccc(NC(=O)Nc2cc(C(F)(F)F)cc(C(F)(F)F)c2)cc1OCCN1CCNCC1
6. Cc1ccc(NC(=O)Nc2ccc(Cl)c(C(F)(F)F)c2)cc1O
7. O=C(Nc1ccc(Cl)c(Cl)c1)Nc1ncccc1O

Ans.
[7, 12, 9, 11, 10, 11, 12]

Qu. Look up maximal fold induction for this compound: Cc1ccc(NC(=O)Nc2ccc(Cl)c(Cl)c2)cc1O
Ans. 13
